measurementTarget: Human recombinant sEH (Homo sapiens)
Construct: made in house; host or cells: Sf9 insect cells, recombinant baculovirus from Dr. B. Hammock
Sequence (P34913 whole entry): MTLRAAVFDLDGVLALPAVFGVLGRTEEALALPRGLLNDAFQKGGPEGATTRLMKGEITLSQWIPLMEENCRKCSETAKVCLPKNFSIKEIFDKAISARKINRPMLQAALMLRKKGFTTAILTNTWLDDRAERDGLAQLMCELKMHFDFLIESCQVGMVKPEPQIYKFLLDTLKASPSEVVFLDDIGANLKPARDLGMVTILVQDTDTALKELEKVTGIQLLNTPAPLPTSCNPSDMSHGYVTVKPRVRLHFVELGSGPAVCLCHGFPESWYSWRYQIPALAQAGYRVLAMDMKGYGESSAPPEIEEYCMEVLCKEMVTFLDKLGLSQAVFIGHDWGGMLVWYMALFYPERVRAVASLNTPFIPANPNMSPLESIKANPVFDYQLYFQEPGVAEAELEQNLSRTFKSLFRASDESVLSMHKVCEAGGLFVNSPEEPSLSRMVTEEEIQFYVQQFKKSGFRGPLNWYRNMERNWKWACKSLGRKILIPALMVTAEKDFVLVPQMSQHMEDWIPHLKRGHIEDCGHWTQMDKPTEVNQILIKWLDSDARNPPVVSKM
assayName: sEH cell-free fluorescence-based assay (PHOME substrate)
Type: biochemical
cond: residual activity at 10 μM; control = vehicle 100%; means ± SEM, n = 3
Field 'label' (enum: satisfied / not satisfied). Set to satisfied when remaining activity at 10 µM is strictly under 80%; else not satisfied.

Some solved cases for reference:
smilesEntry: CC(C)NC(=O)c1ccc2c(=O)n(-c3ccccc3)c(SCc3ccc(C(F)(F)F)cc3)nc2c1
assignedCategory: satisfied
//
smilesEntry: CC(C)(C)CNC(=O)c1ccc2c(=O)[nH]c(SCc3cccc(C(=O)O)c3)nc2c1
assignedCategory: satisfied
//
smilesEntry: CC(C)NC(=O)c1ccc2c(=O)[nH]c(SCc3ccccc3Cl)nc2c1
assignedCategory: satisfied

# input # TODO verify remaining activity at 10 µM < 80% strictly for this compound: O=C(c1ccc2c(=O)[nH]c(SCc3ccccc3Cl)nc2c1)N1CCCCC1
# output satisfied

# input # TODO verify remaining activity at 10 µM < 80% strictly for this compound: COC(=O)c1cccc(CSc2nc3cc(C(=O)NCC(C)(C)C)ccc3c(=O)[nH]2)c1
# output not satisfied

# input # TODO verify remaining activity at 10 µM < 80% strictly for this compound: O=C(c1ccc2c(=O)[nH]c(SCc3ccccc3Cl)nc2c1)N1CCNCC1
# output not satisfied

# input # TODO verify remaining activity at 10 µM < 80% strictly for this compound: CC(C)(C)CNC(=O)c1ccc2c(=O)[nH]c(NCc3ccccc3Cl)nc2c1
# output satisfied
